Measured MIC grade, A. TERREUS 49, YAG media, listed per entry for reference.
test system: A. terreus 49; assay: Minimum inhibitory concentration, YAG medium; format: cell-based, Aspergillus terreus; settings: banded MIC grade

Here's what some known entries look like.
In [3]: df
Out[3]:
                         smiles_text  subject_of_test                     measurement_name             result
0     CN(CCCCCC1=NN=C(N)SC1)c1ccccc1    A. terreus 49  MIC grade, A. TERREUS 49, YAG media  3 (3: 0.2-1 mg/L)
1  NC1=NN=C(CCCCOCc2ccc(Cl)cc2Cl)CS1    A. terreus 49  MIC grade, A. TERREUS 49, YAG media    2 (2: 1-5 mg/L)
2   NC1=NN=C(CCCCOCc2ccc(Cl)cc2F)CS1    A. terreus 49  MIC grade, A. TERREUS 49, YAG media   4 (4: <0.2 mg/L)

**Query** Recall and state the measured MIC grade, A. TERREUS 49, YAG media for "CCCCOC(=O)CC1=NN=C(N)SC1" .
**Result** 3 (3: 0.2-1 mg/L)

**Query** Indicate the recorded MIC grade, A. TERREUS 49, YAG media value for this compound: "NC1=NN=C(c2ccc(C3CCCCC3)cc2)CS1"
**Result** 1 (1: ≥5 mg/L)

**Query** Answer with the recorded MIC grade, A. TERREUS 49, YAG media of "NC1=NN=C(CCCCc2ccccc2)CS1" only.
**Result** 4 (4: <0.2 mg/L)

**Query** Tell me MIC grade, A. TERREUS 49, YAG media reported for "NC1=NN=C(CCCCOCc2cccc(CCc3ccccc3)c2)CS1"
**Result** 2 (2: 1-5 mg/L)

**Query** Look up and report measured MIC grade, A. TERREUS 49, YAG media for this entry: "NC1=NNC(c2cccc3ccccc23)=CS1"
**Result** 1 (1: ≥5 mg/L)

**Query** Tell me MIC grade, A. TERREUS 49, YAG media reported for "NC1=NN=C(CCCCOCc2cc(F)cc(F)c2)CS1"
**Result** 4 (4: <0.2 mg/L)

====

System: A. terreus 49
Experiment: Minimum inhibitory concentration, RPMI medium
Type: cell-based
Settings: banded MIC grade
Description: The compound was dissolved in DMSO to give a solution containing 5 mg/mL. Tubes were stored at −20° C. until required. On the day of testing thawed solutions were vortex mixed to ensure homogeneity. 30 μL of solution was removed and added to 570 μL of sterile water in a separate sterile Eppendorf. The thoroughly mixed solution was used to prepare a series of doubling dilutions in water, in a deep well plate. […] Growth was assessed by monitoring the optical density at 485 nm for each well. […]
Items are presented alongside their recorded MIC grade, A. TERREUS 49, RPMI media.

                       smiles_text            result
0  NC1=NN=C(CCCCOCc2ccc(Cl)cc2)CS1   3 (3: 1-5 mg/L)
1  CCc1cccc(COCCCCC2=NN=C(N)SC2)c1  2 (2: 5-20 mg/L)

**Query** Determine its reported MIC grade, A. TERREUS 49, RPMI media: "NC1=NN=C(CCCCOCCc2ccccc2)CS1"
**Result** 2 (2: 5-20 mg/L)

**Query** Name the recorded MIC grade, A. TERREUS 49, RPMI media of the item "NC1=NN=C(CCCCOCc2cccc(Br)c2)CS1" in your answer.
**Result** 3 (3: 1-5 mg/L)

**Query** Answer with the recorded MIC grade, A. TERREUS 49, RPMI media of "NC1=NN=C(CCCCOCc2cc(F)ccc2F)CS1" only.
**Result** 2 (2: 5-20 mg/L)

**Query** In one line, give reported MIC grade, A. TERREUS 49, RPMI media of the entry "COc1ccc(COCCCCC2=NN=C(N)SC2)cc1" .
**Result** 1 (1: ≥20 mg/L)

**Query** State its MIC grade, A. TERREUS 49, RPMI media: "NC1=NN=C(CCCCOCCCc2ccc(F)cc2F)CS1"
**Result** 2 (2: 5-20 mg/L)

**Query** Name the recorded MIC grade, A. TERREUS 49, RPMI media of the compound listed here: "Cc1cc(COCCCCC2=NN=C(N)SC2)ccc1F"
**Result** 3 (3: 1-5 mg/L)

**Query** Using the record for "NC1=NN=C(CCCCOCc2ccc(F)cc2F)CS1" , state its measured MIC grade, A. TERREUS 49, RPMI media.
**Result** 4 (4: <1 mg/L)

**Query** Supply measured MIC grade, A. TERREUS 49, RPMI media of "Cc1cccc(COCCCCC2=NN=C(N)SC2)c1" in your reply.
**Result** 2 (2: 5-20 mg/L)

**Query** Note down MIC grade, A. TERREUS 49, RPMI media recorded for "CCCCc1ccc(COCCCCC2=NN=C(N)SC2)cc1"
**Result** 1 (1: ≥20 mg/L)

**Query** Provide measured MIC grade, A. TERREUS 49, RPMI media value, entry: "NC1=NN=C(CCCCSCc2ccc(Cl)cc2)CS1"
**Result** 2 (2: 5-20 mg/L)

**Query** Let me know recorded MIC grade, A. TERREUS 49, RPMI media for "NC1=NN=C(CCCCOCc2ccccc2CCc2ccccc2)CS1" , thanks.
**Result** 2 (2: 5-20 mg/L)

**Query** Note down MIC grade, A. TERREUS 49, RPMI media recorded for "NC1=NN=C(CCCCOCc2cccc(Oc3ccccc3)c2)CS1"
**Result** 1 (1: ≥20 mg/L)

**Query** Quote MIC grade, A. TERREUS 49, RPMI media reported for "CCCCc1cccc(COCCCCC2=NN=C(N)SC2)c1" please.
**Result** 2 (2: 5-20 mg/L)

**Query** Identify measured MIC grade, A. TERREUS 49, RPMI media corresponding to "NC1=NN=C(CCOCCOc2ccccc2)CS1"
**Result** 4 (4: <1 mg/L)

**Query** For the compound "NC1=NN=C(CCCCOCc2ccc(C(F)(F)F)cc2)CS1" , give its measured MIC grade, A. TERREUS 49, RPMI media value.
**Result** 2 (2: 5-20 mg/L)
